Origin of values: patent EP0005055A2

LD50 at 336 h for assorted compounds
# measurementDescription: Mouse Acute Oral Toxicity (LD50)
# measurementContext: in vivo, oral by stomach tube, single dose, mice observed for deaths over 14 days
# Experimental: B) Mouse Acute Oral Toxicity (LD50) Protocol: The test material is suspended in an aqueous vehicle containing carboxymethyl cellulose. A volume of 10 ml/kg body weight is used for each dose. The test material is given orally by stomach tube to 24 male Swiss-Webster mice, 6 per group, on the first day of the test, using doses of 250, 500, 1000 and 2000 mg./kg. body weight of test compound. Another group of 6 mice, receiving the vehicle only, serve as the control. […]

O=C(O)Cc1ccc2c(c1)[S+]([O-])Cc1ccccc1C2=O (centres unmarked) ... > 2000 mg/kg

Now for a further compound.
q: Output LD50 at 336 h of O=C(O)Cc1ccc2c(c1)SCc1cc(Cl)ccc1C2=O
a: ~300 mg/kg
